ASSAY OVERVIEW: Solubility of DEX in vegetable oils with cosolvents (shaker, HPLC)
Assay type: physicochemical
CONDITIONS USED: oil or lipid, thermodynamic from solid; castor oil with 20 % (v/v) Capryol 90, 37 °C, 24 hours incubation
READOUT TYPE: solubility at 24 h

// sample C[C@@H]1C[C@H]2[C@@H]3CCC4=CC(=O)C=C[C@]4(C)[C@@]3(F)[C@@H](O)C[C@]2(C)[C@@]1(O)C(=O)CO , its solubility at 24 h was ~1200 µg/mL

###

ASSAY OVERVIEW: Solubility of DEX in vegetable oils with cosolvents (shaker, HPLC)
Format: physicochemical
CONDITIONS USED: oil or lipid, thermodynamic from solid; castor oil with 20 % (v/v) isopropanol, 37 °C, 24 hours incubation
READOUT TYPE: solubility at 24 h

// sample C[C@@H]1C[C@H]2[C@@H]3CCC4=CC(=O)C=C[C@]4(C)[C@@]3(F)[C@@H](O)C[C@]2(C)[C@@]1(O)C(=O)CO , its solubility at 24 h was ~2.3 mg/mL
